Reference source: PubChem BioAssay (NCI)

Item-by-item account of TGI
test system: HL-60(TB) leukemia; assay: NCI tumour cell line growth inhibition, 48 h

COc1ccc(OC2OC(CO)C(OCc3ccccc3)C(OCc3ccccc3)C2OCc2ccccc2)cc1 (stereo unspecified) ... > 100 µM
CN1C(=O)N(C)C(O)C(Cl)(Br)C1=O (stereo unspecified) ... > 100 µM
C[C@]12CCCC(=O)C1(O)C[C@H](C(=O)O)CC2 (stereo partly specified) ... > 100 µM
NC(N)=NCCC1OC(=O)C2=C1c1c(O)ccc3nccc(c13)O2 (stereo unspecified) ... > 100 µM
CCC(O)(Cc1ccc(OC)cc1)c1ccc(OC)cc1 (stereo unspecified) ... > 100 µM

Provide one value: measured TGI of CC(CCC(=O)O)C(=O)O (stereo unspecified)
> 100 µM

Provide one value: measured TGI of `N#C/C(C(=O)Nc1ccc(Cl)cc1)=C(/N)N1CCCC1`
> 100 µM

Provide one value: measured TGI of CN(C)/N=C(/c1nc2ccc(Cl)cc2[nH]c1=O)C(O)c1ccc(C(O)/C(=N\N(C)C)c2nc3ccc(Cl)cc3[nH]c2=O)cc1 (stereo unspecified)
> 100 µM

Provide one value: measured TGI of `Nc1nc(Cl)cc(NCC2(O)CC2)n1`
> 100 µM

Provide one value: measured TGI of `Cc1ccc2nc(-c3ccc(N(C)C)c(Br)c3)cn2c1`
> 100 µM

Provide one value: measured TGI of `CCC[n+]1cc2cc(OC)c(OC)cc2c2c1-c1cc3c(cc1C2)OCO3`
> 54.1 µM
